Source listed as patent US20220388964A1.

Molecular target: GCN2 (Homo sapiens)
Test: TR-FRET biochemical assay for inhibition of GCN2 (Example 106, for Example 1-4BB)
Conditions: Table 8
pIC50: −log10 of the molar value.
Below: a set of entries, each annotated with reported pIC50.
RECORDED_METRIC: pIC50

{"columns": ["COMPOUND", "OBSERVED_VALUE"],
 "data": [
  ["COc1ccccc1S(=O)(=O)Nc1ccc(F)c(-c2ccc3c(-c4ncc[nH]4)n[nH]c3c2F)c1F [Example 2BF]", "5.60 to 6.30"],
  ["Cn1cc(Cl)cc(S(=O)(=O)Nc2ccc(F)c(-c3ccc4c(-c5ncc[nH]5)n[nH]c4c3F)c2F)c1=O [Example 2AN]", "> 6.30"],
  ["Cc1ccccc1S(=O)(=O)Nc1ccc(F)c(-c2ccc3c(-c4ncc[nH]4)n[nH]c3c2F)c1F [Example 2BR]", "> 6.30"],
  ["O=S(=O)(Nc1ccc(F)c(-c2ccc3c(-c4ncc[nH]4)n[nH]c3c2F)c1F)c1cc(F)ccc1F [Example 2BH]", "> 6.30"],
  ["Cc1cnc(C)c(S(=O)(=O)Nc2ccc(F)c(-c3ccc4c(-c5ncc[nH]5)n[nH]c4c3F)c2F)c1 [Example 2AH]", "> 6.30"],
  ["COc1ncc(Cl)cc1S(=O)(=O)Nc1ccc(F)c(-c2ccc3c(C(N)=O)n[nH]c3c2F)c1F [Example 2Z]", "> 6.30"],
  ["Cc1nn(C)cc1S(=O)(=O)Nc1ccc(F)c(-c2ccc3c(-c4ncc[nH]4)n[nH]c3c2F)c1F [Example 2I]", "5.60 to 6.30"],
  ["Cn1ncc(S(=O)(=O)Nc2ccc(F)c(-c3ccc4c(-c5ncc[nH]5)n[nH]c4c3F)c2F)n1 [Example 2Y]", "5.00 to 5.60"],
  ["Cc1ncc(Cl)cc1S(=O)(=O)Nc1ccc(F)c(-c2ccc3c(-c4ncc[nH]4)n[nH]c3c2F)c1F [Example 2CM]", "> 6.30"],
  ["COc1ncc(Cl)cc1S(=O)(=O)Nc1ccc(F)c(-c2ccc3c(-c4ncc[nH]4)n[nH]c3c2F)c1Cl [Example 2T]", "> 6.30"],
  ["COc1ncc(Cl)cc1S(=O)(=O)Nc1ccc(F)c(-c2ccc3c(-c4ncc[nH]4)n[nH]c3c2)n1 [Example 2CA]", "5.60 to 6.30"],
  ["COc1ncc(Cl)cc1S(=O)(=O)Nc1cc(C)nc(-c2ccc3c(-c4ncc[nH]4)n[nH]c3c2F)c1F [Example 2AO]", "5.00 to 5.60"],
  ["O=S(=O)(Nc1ccc(F)c(-c2ccc3c(-c4ncc[nH]4)n[nH]c3c2F)c1F)c1cccnc1 [Example 2CO]", "5.00 to 5.60"],
  ["CCn1cc(S(=O)(=O)Nc2ccc(F)c(-c3ccc4c(-c5ncc[nH]5)n[nH]c4c3F)c2F)cn1 [Example 2D]", "5.00 to 5.60"],
  ["Cn1cccc(S(=O)(=O)Nc2ccc(F)c(-c3ccc4c(-c5ncc[nH]5)n[nH]c4c3F)c2F)c1=O [Example 2AJ]", "5.00 to 5.60"],
  ["COc1ncc(Cl)cc1S(=O)(=O)Nc1ccc(F)c(-c2ccc3c(C(=O)NCCCN(C)C)n[nH]c3c2F)c1F [Example 2CG]", "> 6.30"],
  ["O=S(=O)(Nc1ccc(F)c(-c2ccc3c(-c4ncc[nH]4)n[nH]c3c2F)c1F)c1c(F)cccc1F [Example 2BG]", "> 6.30"],
  ["COc1cccc(S(=O)(=O)Nc2ccc(F)c(-c3ccc4c(-c5ncc[nH]5)n[nH]c4c3F)c2F)c1 [Example 2F]", "> 6.30"],
  ["Cn1cc(S(=O)(=O)Nc2ccc(F)c(-c3ccc4c(-c5ncc[nH]5)n[nH]c4c3F)c2F)c(Cl)n1 [Example 2H]", "5.60 to 6.30"],
  ["COc1cccc(S(=O)(=O)Nc2ccc(F)c(-c3ccc4c(-c5ncc[nH]5)n[nH]c4c3F)c2F)n1 [Example 2AM]", "5.60 to 6.30"],
  ["COc1ncc(Cl)cc1S(=O)(=O)Nc1ccc(F)c(-c2ccc3c(N)n[nH]c3c2F)c1F [Example 7]", "5.60 to 6.30"],
  ["Cc1c(O)cccc1S(=O)(=O)Nc1ccc(F)c(-c2ccc3c(-c4ncc[nH]4)n[nH]c3c2F)c1F [Example 2AU]", "5.60 to 6.30"],
  ["O=S(=O)(Nc1ccc(F)c(-c2ccc3c(-c4ncc[nH]4)n[nH]c3c2F)c1F)c1cc(Cl)cc(CO)c1Cl [Example 2AF]", "> 6.30"],
  ["Cc1ccc(C)c(S(=O)(=O)Nc2ccc(F)c(-c3ccc4c(-c5ncc[nH]5)n[nH]c4c3F)c2F)c1 [Example 2BI]", "> 6.30"],
  ["Cc1cccc(S(=O)(=O)Nc2ccc(F)c(-c3ccc4c(-c5ncc[nH]5)n[nH]c4c3F)c2F)c1C [Example 2AI]", "> 6.30"],
  ["Cn1cc(S(=O)(=O)Nc2ccc(F)c(-c3ccc4c(-c5ncc[nH]5)n[nH]c4c3F)c2F)nn1 [Example 2W]", "5.00 to 5.60"],
  ["O=S(=O)(Nc1ccc(F)c(-c2ccc3c(-c4ncc[nH]4)n[nH]c3c2F)c1F)c1cccc(F)c1F [Example 2AG]", "> 6.30"],
  ["Cc1oncc1S(=O)(=O)Nc1ccc(F)c(-c2ccc3c(-c4ncc[nH]4)n[nH]c3c2F)c1F [Example 2AE]", "< 5.00"],
  ["O=S(=O)(Nc1ccc(F)c(-c2ccc3c(-c4ncc[nH]4)n[nH]c3c2F)c1F)c1cccnc1Cl [Example 2BM]", "> 6.30"]
]}

###

Below: a set of entries, each annotated with reported pIC50.
Biological target: GCN2 (Homo sapiens, UniProt Q9P2K8)
Sequence (Q9P2K8 whole entry): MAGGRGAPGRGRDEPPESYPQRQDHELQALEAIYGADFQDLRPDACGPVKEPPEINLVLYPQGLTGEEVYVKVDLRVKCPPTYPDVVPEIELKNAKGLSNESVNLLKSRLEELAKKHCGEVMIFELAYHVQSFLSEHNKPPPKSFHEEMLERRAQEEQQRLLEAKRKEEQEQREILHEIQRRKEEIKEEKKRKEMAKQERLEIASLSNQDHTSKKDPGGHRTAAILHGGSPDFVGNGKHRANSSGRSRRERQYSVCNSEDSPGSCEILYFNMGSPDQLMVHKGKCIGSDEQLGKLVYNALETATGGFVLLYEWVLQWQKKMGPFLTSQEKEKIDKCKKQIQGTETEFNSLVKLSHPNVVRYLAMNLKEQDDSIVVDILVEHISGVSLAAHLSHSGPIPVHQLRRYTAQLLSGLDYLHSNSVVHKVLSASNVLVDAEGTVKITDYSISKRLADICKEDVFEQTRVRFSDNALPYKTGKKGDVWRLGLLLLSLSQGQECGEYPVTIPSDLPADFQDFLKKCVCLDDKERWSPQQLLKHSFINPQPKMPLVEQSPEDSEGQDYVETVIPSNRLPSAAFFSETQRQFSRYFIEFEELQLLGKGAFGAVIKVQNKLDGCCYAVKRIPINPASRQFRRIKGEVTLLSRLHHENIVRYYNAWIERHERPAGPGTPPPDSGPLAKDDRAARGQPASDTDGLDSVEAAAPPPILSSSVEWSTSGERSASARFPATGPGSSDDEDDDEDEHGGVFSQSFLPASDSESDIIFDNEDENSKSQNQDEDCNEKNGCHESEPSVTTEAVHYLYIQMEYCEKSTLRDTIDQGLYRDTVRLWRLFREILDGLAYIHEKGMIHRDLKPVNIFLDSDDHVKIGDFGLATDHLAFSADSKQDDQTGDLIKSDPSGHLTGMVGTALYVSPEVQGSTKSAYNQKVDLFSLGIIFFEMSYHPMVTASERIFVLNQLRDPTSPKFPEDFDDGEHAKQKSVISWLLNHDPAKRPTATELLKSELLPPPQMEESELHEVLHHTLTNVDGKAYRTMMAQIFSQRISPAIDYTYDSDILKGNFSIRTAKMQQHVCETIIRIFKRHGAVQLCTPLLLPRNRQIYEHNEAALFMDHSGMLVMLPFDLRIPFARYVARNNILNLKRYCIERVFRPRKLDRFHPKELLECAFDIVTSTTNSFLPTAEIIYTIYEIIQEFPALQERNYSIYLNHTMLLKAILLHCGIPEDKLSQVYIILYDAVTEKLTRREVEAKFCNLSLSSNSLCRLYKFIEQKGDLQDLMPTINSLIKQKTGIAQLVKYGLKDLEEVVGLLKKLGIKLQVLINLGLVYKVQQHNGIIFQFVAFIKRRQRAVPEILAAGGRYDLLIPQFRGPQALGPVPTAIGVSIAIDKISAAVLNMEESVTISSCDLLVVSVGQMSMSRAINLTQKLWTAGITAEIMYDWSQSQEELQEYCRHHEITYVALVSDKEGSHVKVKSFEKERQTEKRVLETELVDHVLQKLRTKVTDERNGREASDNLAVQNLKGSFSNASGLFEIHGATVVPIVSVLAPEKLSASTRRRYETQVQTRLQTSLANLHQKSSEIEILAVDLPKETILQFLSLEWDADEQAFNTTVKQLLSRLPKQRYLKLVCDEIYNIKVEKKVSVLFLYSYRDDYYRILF
Experiment: TR-FRET biochemical assay for inhibition of GCN2 (Example 106, for Example 1-4BB)
Settings: Table 9
pIC50: −log10 of the molar value.

{"columns": ["INPUT_SMILES", "pIC50"],
 "data": [
  ["COc1ncc(F)cc1S(=O)(=O)Nc1ccc(F)c(-c2ccc3c(C(=O)NC4CCNCC4)n[nH]c3c2F)c1F", "5.60 to 6.30"],
  ["O=C(NCCCO)c1n[nH]c2c(F)c(-c3c(F)ccc(NS(=O)(=O)c4cccn5ccnc45)c3F)ccc12", "5.00 to 5.60"],
  ["COc1ncc(F)cc1S(=O)(=O)Nc1ccc(F)c(-c2ccc3c(-c4nc(Cl)c[nH]4)n[nH]c3c2F)c1F", "> 6.30"],
  ["COc1ncc(F)cc1S(=O)(=O)Nc1cccc(-c2ccc3c(C(N)=O)n[nH]c3c2F)c1F", "> 6.30"]
]}

###

Molecular target: GCN2 (Homo sapiens, UniProt Q9P2K8)
Assay: TR-FRET biochemical assay for inhibition of GCN2 (Example 108, for Examples 73-105)
pIC50: −log10 of the molar value.
Below: a set of entries, each annotated with reported pIC50.

{"columns": ["COMPOUND", "pIC50"],
 "data": [
  ["COc1ncc(Cl)cc1S(=O)(=O)Nc1ccc(F)c(-c2ccc3c(C(=O)NCC(F)(F)F)n[nH]c3c2F)c1F", "> 6.30"],
  ["COc1ncc(Cl)cc1S(=O)(=O)Nc1ccc(F)c(-c2ccc3c(C(=O)NCCN4CCOCC4)n[nH]c3c2F)c1F", "> 6.30"],
  ["CNC(=O)c1n[nH]c2c(F)c(-c3c(F)ccc(NS(=O)(=O)C4CCCN(C)C4)c3F)ccc12 (stereo not drawn)", "5.00 to 5.60"],
  ["CNC(=O)c1n[nH]c2c(F)c(-c3c(F)ccc(NS(=O)(=O)c4cc(F)cc5c4CCC5O)c3F)ccc12 (stereo not drawn)", "> 6.30"],
  ["COc1ncc(Cl)cc1S(=O)(=O)Nc1ccc(F)c(-c2ccc3c(C(=O)NCC4CC4)n[nH]c3c2F)c1F", "> 6.30"],
  ["C#CC(C)(C)NC(=O)c1n[nH]c2c(F)c(-c3c(F)ccc(NS(=O)(=O)c4cc(Cl)cnc4OC)c3F)ccc12", "> 6.30"],
  ["COc1ncc(Cl)cc1S(=O)(=O)Nc1ccc(F)c(-c2ccc3c(C(=O)NCCN4CCCC4=O)n[nH]c3c2F)c1F", "> 6.30"],
  ["C#CCNC(=O)c1n[nH]c2c(F)c(-c3c(F)ccc(NS(=O)(=O)c4cc(Cl)cnc4OC)c3F)ccc12", "> 6.30"],
  ["COc1ncc(Cl)cc1S(=O)(=O)Nc1ccc(F)c(-c2ccc3c(C(=O)NC4CCC(O)C4)n[nH]c3c2F)c1F (stereo not drawn)", "> 6.30"],
  ["COc1ncc(Cl)cc1S(=O)(=O)Nc1ccc(F)c(-c2ccc3c(C(=O)NCC4CCN(C)C4)n[nH]c3c2F)c1F (stereo not drawn)", "> 6.30"],
  ["COc1ncc(Cl)cc1S(=O)(=O)Nc1ccc(F)c(-c2ccc3c(C(=O)NC4CCCC4O)n[nH]c3c2F)c1F (stereo not drawn)", "> 6.30"],
  ["COc1ncc(Cl)cc1S(=O)(=O)Nc1ccc(F)c(-c2ccc3c(C(=O)NCC4CCOCC4)n[nH]c3c2F)c1F", "> 6.30"],
  ["COc1ncc(Cl)cc1S(=O)(=O)Nc1ccc(F)c(-c2ccc3c(C(=O)NC4CCCC4)n[nH]c3c2F)c1F", "> 6.30"],
  ["COc1ncc(Cl)cc1S(=O)(=O)Nc1ccc(F)c(-c2ccc3c(C(=O)NC4CCC(=O)CC4)n[nH]c3c2F)c1F", "> 6.30"],
  ["COc1ncc(Cl)cc1S(=O)(=O)Nc1ccc(F)c(-c2ccc3c(C(=O)NCCN4CCCC4)n[nH]c3c2F)c1F", "> 6.30"],
  ["COc1ncc(Cl)cc1S(=O)(=O)Nc1ccc(F)c(-c2ccc3c(C(=O)NC4CCCC(N)C4)n[nH]c3c2F)c1F (stereo not drawn)", "> 6.30"],
  ["COc1ncc(Cl)cc1S(=O)(=O)Nc1ccc(F)c(-c2ccc3c(C(=O)NC4CCCC(O)C4)n[nH]c3c2F)c1F (stereo not drawn)", "> 6.30"],
  ["CNC(=O)c1n[nH]c2c(F)c(-c3c(F)ccc(NS(=O)(=O)C4CCOCC4)c3F)ccc12", "5.00 to 5.60"],
  ["CNC(=O)c1n[nH]c2c(F)c(-c3c(F)ccc(NS(=O)(=O)CC4CCCC4)c3F)ccc12", "5.00 to 5.60"],
  ["COc1ncc(Cl)cc1S(=O)(=O)Nc1ccc(F)c(-c2ccc3c(C(=O)NCCS(C)(=O)=O)n[nH]c3c2F)c1F", "> 6.30"],
  ["COc1ncc(Cl)cc1S(=O)(=O)Nc1ccc(F)c(-c2ccc3c(C(=O)NC4CCCCC4O)n[nH]c3c2F)c1F (stereo not drawn)", "> 6.30"],
  ["CNC(=O)c1n[nH]c2c(F)c(-c3c(F)ccc(NS(=O)(=O)CC4CCC(O)C4)c3F)ccc12 (mixture of isomers)", "5.00 to 5.60"],
  ["COc1ncc(Cl)cc1S(=O)(=O)Nc1ccc(F)c(-c2ccc3c(C(=O)NC4CC4)n[nH]c3c2F)c1F", "> 6.30"],
  ["COc1ncc(Cl)cc1S(=O)(=O)Nc1ccc(F)c(-c2ccc3c(C(=O)NC(C)CN)n[nH]c3c2F)c1F (stereo not drawn)", "> 6.30"],
  ["COc1ncc(Cl)cc1S(=O)(=O)Nc1ccc(F)c(-c2ccc3c(C(=O)NC(C#N)C4CC4)n[nH]c3c2F)c1F (stereo not drawn)", "> 6.30"],
  ["COc1ncc(Cl)cc1S(=O)(=O)Nc1ccc(F)c(-c2ccc3c(C(=O)NC4CCCCC4N)n[nH]c3c2F)c1F (stereo not drawn)", "5.60 to 6.30"],
  ["COc1ncc(Cl)cc1S(=O)(=O)Nc1ccc(F)c(-c2ccc3c(C(=O)NCC4CCCNC4)n[nH]c3c2F)c1F (stereo not drawn)", "> 6.30"]
]}
